- Test system: Micrococcus luteus
- measurement-notes: turbidometric bacterial growth inhibition on a 96 well plate
- condition-details: compound 1 mg/ml, 24 h
Structures can show the parent of a compound that is named as a salt.
property-label: percent growth inhibition M. luteus 24 h (%)
Give the value in % but do not write % after it.

Some solved entries appear below for comparison.
C=C(C)[C@@H]1CC[C@]2(COC(=O)c3ccccc3NC(C)=O)CC[C@]3(C)C(CCC4[C@@]5(C)CC[C@H](O)C(C)(C)C5CC[C@]43C)C12 (some centres unmarked) :: 60.5
C=C(C)C1CCC2(COC(=O)C=Cc3ccccc3)CCC3(C)C(CCC4C5(C)CCC(O)C(C)(C)C5CCC43C)C12 (centres unmarked) :: 0.0
C=C(C)[C@@H]1CC[C@]2(C(=O)O)CC[C@]3(C)[C@H](CC[C@@H]4[C@@]5(C)CCC(=O)C(C)(C)[C@@H]5CC[C@]43C)[C@@H]12 :: 0.0
C=C(C)[C@@H]1CC[C@]2(COS(C)(=O)=O)CC[C@]3(C)[C@H](CC[C@@H]4[C@@]5(C)CC[C@H](OC(C)=O)C(C)(C)[C@@H]5CC[C@]43C)[C@@H]12 [Compound 25, betulin 3-acetate-28 mesylate] :: 12.4

Supply reported percent growth inhibition M. luteus 24 h belonging to this compound: "C=C(C)[C@@H]1CC[C@]2(COC(=O)COc3cc(C(C)C)ccc3C)CC[C@]3(C)[C@H](CC[C@@H]4[C@@]5(C)CC[C@H](O)C(C)(C)[C@@H]5CC[C@]43C)[C@@H]12"
0.1

###

- Test system: Bacillus subtilis
- measurement-notes: turbidometric bacterial growth inhibition on a 96 well plate
- condition-details: compound 1 mg/ml, 24 h
Structures can show the parent of a compound that is named as a salt.
property-label: percent growth inhibition B. subtilis 24 h (%)
The reply should be a number in %, with the unit left off.

Answered cases to consult:
C=C(C)[C@@H]1CC[C@]2(COC(=O)c3ccccc3NC(C)=O)CC[C@]3(C)C(CCC4[C@@]5(C)CC[C@H](O)C(C)(C)C5CC[C@]43C)C12 (some centres unmarked) :: 54.6
C=C(C)[C@@H]1CC[C@]2(C(=O)O)CC[C@]3(C)[C@H](CC[C@@H]4[C@@]5(C)CCC(=O)C(C)(C)[C@@H]5CC[C@]43C)[C@@H]12 :: 0.0
C=C(C)[C@@H]1CC[C@]2(COS(C)(=O)=O)CC[C@]3(C)[C@H](CC[C@@H]4[C@@]5(C)CC[C@H](OC(C)=O)C(C)(C)[C@@H]5CC[C@]43C)[C@@H]12 [Compound 25, betulin 3-acetate-28 mesylate] :: 15.2
C=C(C)C1CCC2(COC(=O)C=Cc3ccccc3)CCC3(C)C(CCC4C5(C)CCC(O)C(C)(C)C5CCC43C)C12 (centres unmarked) :: 11.1

Dear colleague, please send me the reported percent growth inhibition B. subtilis 24 h for "C=C(C)[C@@H]1CC[C@]2(COC(=O)COc3cc(C(C)C)ccc3C)CC[C@]3(C)[C@H](CC[C@@H]4[C@@]5(C)CC[C@H](O)C(C)(C)[C@@H]5CC[C@]43C)[C@@H]12" when you can.
7.3
